- test description: Stability of cannabinoid compounds and Vitamin E components in Beverage 1 (AB White) by LCMSMS
- Type: physicochemical
- test parameters: AB White stored at 8° C.; 480 days
# binarize Stability of Plant-Derived Cannabinoid Compounds in AB White, 8° C.: threshold 2 µg/mL inclusive, high side fulfilled, low side not fulfilled

Exam item: decide whether the reported Stability of Plant-Derived Cannabinoid Compounds in AB White, 8° C. for CCCCCc1cc(O)c2c(c1)OC(C)(C)[C@@H]1CCC(C)=C[C@@H]21 [D9 THC, delta-9-tetrahydrocannabinol, reference compound] is at least 2 µg/mL.
fulfilled

Test whether the molecule C=C(C)[C@@H]1CCC(C)=C[C@H]1c1c(O)cc(CCCCC)c(C(=O)O)c1O records Stability of Plant-Derived Cannabinoid Compounds in AB White, 8° C. of 2 µg/mL or higher.
not fulfilled

Quick check, Stability of Plant-Derived Cannabinoid Compounds in AB White, 8° C. >= 2 µg/mL? C=C(C)[C@@H]1CCC(C)=C[C@H]1c1c(O)cc(CCCCC)cc1O [CBD, cannabidiol, reference compound]
fulfilled

Answer whether Stability of Plant-Derived Cannabinoid Compounds in AB White, 8° C. of CCCCCc1cc(O)c(C/C=C(\C)CCC=C(C)C)c(O)c1 is greater than or equal to 2 µg/mL.
fulfilled

Please indicate if the recorded Stability of Plant-Derived Cannabinoid Compounds in AB White, 8° C. for CCCCCc1cc(O)c2c(c1)OC1(C)CCC3C1C2C3(C)C (stereo not drawn) meets or exceeds 2 µg/mL.
not fulfilled

Does the molecule CCCCCc1cc(O)c2c(c1)OC(C)(CCC=C(C)C)C=C2 (stereo not drawn) have recorded Stability of Plant-Derived Cannabinoid Compounds in AB White, 8° C. that is 2 µg/mL or more?
not fulfilled

====

- test description: Stability of cannabinoid entourage and Vitamin E components of the powder concentrate by LCMSMS
- Assay type: physicochemical
- test parameters: powder stored at 21-25° C.; 10 days
Use true when the recorded Stability of Plant-Derived Cannabinoid Compounds in Powder Concentrate is no lower than 0.4 mg/g powder; use false when it is lower.

C=C(C)[C@@H]1CCC(C)=C[C@H]1c1c(O)cc(CCC)cc1O [CBDV, cannabidivarin]    false
CCCCCc1cc2c(c(O)c1C(=O)O)[C@@H]1C=C(C)CC[C@H]1C(C)(C)O2 [D9 THCA, delta-9-tetrahydrocannabinolic acid]    false

Test whether the molecule CCCc1cc(O)c2c(c1)OC(C)(C)[C@@H]1CCC(C)=C[C@@H]21 [THCV, delta-9-tetrahydrocannabivarin] records Stability of Plant-Derived Cannabinoid Compounds in Powder Concentrate of 0.4 mg/g powder or higher.
true

Please check the record C=C(C)[C@@H]1CCC(C)=C[C@H]1c1c(O)cc(CCCCC)cc1O [CBD, cannabidiol, reference compound] and state if its Stability of Plant-Derived Cannabinoid Compounds in Powder Concentrate is at or above 0.4 mg/g powder.
true

====

- test description: Stability of cannabinoid compounds and Vitamin E components in Beverage 2 (AB Red) by LCMSMS
- Assay type: physicochemical
- test parameters: stored at 8° C., 390 days
Assignment: determine reported Stability of Plant-Derived Cannabinoid Compounds in AB Red for the given molecules.

// below: answered molecules
CCCCCc1cc(O)c2c(c1)OC(C)(C)[C@@H]1CCC(C)=C[C@@H]21 [D9 THC, delta-9-tetrahydrocannabinol, reference compound]    12.4 µg/mL
CCCCCc1cc(O)c2c(c1)OC(C)(CCC=C(C)C)C=C2 (centres unmarked)    0.282 µg/mL
CCCCCc1cc(O)c2c(c1)OC1(C)CCC3C1C2C3(C)C (centres unmarked)    0.491 µg/mL

For each of the molecules below, state Stability of Plant-Derived Cannabinoid Compounds in AB Red.
1. CCCc1cc(O)c2c(c1)OC(C)(C)[C@@H]1CCC(C)=C[C@@H]21 [THCV, delta-9-tetrahydrocannabivarin]
2. C=C(C)[C@@H]1CCC(C)=C[C@H]1c1c(O)cc(CCCCC)c(C(=O)O)c1O

["3.08 µg/mL", "1.63 µg/mL"]
